Target: T1, human LAG-3 on cells (HEK293-hLAG-3 stable cell line) (human, UniProt P18627 23-525)
T1 sequence: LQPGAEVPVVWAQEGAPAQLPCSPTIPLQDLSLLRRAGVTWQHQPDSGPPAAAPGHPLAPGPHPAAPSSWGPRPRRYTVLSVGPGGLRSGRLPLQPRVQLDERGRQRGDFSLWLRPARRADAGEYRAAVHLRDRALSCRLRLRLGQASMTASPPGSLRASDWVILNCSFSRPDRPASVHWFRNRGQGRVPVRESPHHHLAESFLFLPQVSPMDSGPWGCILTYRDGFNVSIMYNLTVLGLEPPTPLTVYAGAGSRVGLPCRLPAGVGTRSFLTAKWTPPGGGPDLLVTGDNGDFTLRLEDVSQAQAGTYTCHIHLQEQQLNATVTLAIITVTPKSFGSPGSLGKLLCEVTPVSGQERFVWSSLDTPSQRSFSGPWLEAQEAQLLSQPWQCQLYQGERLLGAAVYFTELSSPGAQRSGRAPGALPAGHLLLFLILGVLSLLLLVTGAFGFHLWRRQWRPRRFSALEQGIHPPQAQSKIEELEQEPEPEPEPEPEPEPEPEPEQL
Test: cell-based or functional assay
VALUE KIND: IL-2 production, antigen-specific T lymphocyte stimulation test, 2 ug/ml, N = 2 (pg/mL)

BINDER: 105F1E10 mouse-human chimeric antibody (antibody, V domains shown, also called mAb009-105F1E10) VH: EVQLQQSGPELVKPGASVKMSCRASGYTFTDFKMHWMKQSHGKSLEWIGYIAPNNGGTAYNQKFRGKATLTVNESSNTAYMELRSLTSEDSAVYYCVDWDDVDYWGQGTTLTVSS VL: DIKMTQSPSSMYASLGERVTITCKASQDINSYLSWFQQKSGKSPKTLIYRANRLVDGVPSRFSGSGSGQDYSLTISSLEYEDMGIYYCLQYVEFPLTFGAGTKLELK
QUANTITATIVE READOUT: 792
